Entries and their shrunken log2 fold change
# System: Escherichia coli TOP10
# Test Method Notes: shrunken log2 fold change of peptide-encoding DNA abundance (4.5 h post-induction vs induction); higher = less antimicrobial activity (less host growth inhibition)
# Condition Set: time post-induction: 4.5 h; library: site-saturation at positions 5, 18, 19, 20
// no unit string in output, number only

RRIRNRPPRLPRPRPRPCLYPRP	0.0767
RRIRGRPPRLPRPRPRPTPFPRP	0.629
RRIRIRPPRLPRPRPRPNVPPRP	0.0631

// query Recorded shrunken log2 fold change of RRIRVRPPRLPRPRPRPQVEPRP , please.
// result -0.272

// query Given the entry RRIRFRPPRLPRPRPRPWKYPRP , report its measured shrunken log2 fold change.
// result -0.411

----------
# Tested on: Escherichia coli TOP10
# Test Method Notes: shrunken log2 fold change of peptide-encoding DNA abundance (4.5 h post-induction vs induction); higher = less antimicrobial activity (less host growth inhibition)
# Condition Set: time post-induction: 4.5 h; library: site-saturation at positions 5, 18, 19, 20
Consider the following sequences and their measured shrunken log2 fold change readings.
No unit in the answer, only the number.

RRIRGRPPRLPRPRPRPHGFPRP	0.422
RRIRTRPPRLPRPRPRPERQPRP	-0.0252

Note: attention shifts to another entry.
// query What value of measured shrunken log2 fold change is listed for RRIRKRPPRLPRPRPRPHLSPRP ?
// result 0.0468

----------
# Tested on: Escherichia coli TOP10
# Test Method Notes: shrunken log2 fold change of peptide-encoding DNA abundance (4.5 h post-induction vs induction); higher = less antimicrobial activity (less host growth inhibition)
# Condition Set: time post-induction: 4.5 h; library: site-saturation at positions 5, 18, 19, 20
Readout Type: shrunken log2 fold change
Please reply with the value in numeric form only.

RRIRNRPPRLPRPRPRPDYQPRP	-0.165
RRIRERPPRLPRPRPRPFPHPRP	-0.15
RRIRNRPPRLPRPRPRPRWCPRP	0.169
RRIRARPPRLPRPRPRPPMHPRP	0.51
RRIRFRPPRLPRPRPRPSFFPRP	-0.0473
RRIRHRPPRLPRPRPRPMTAPRP	-0.135
RRIRERPPRLPRPRPRPRGKPRP	0.0142
RRIRQRPPRLPRPRPRPHWFPRP	0.0358
RRIRRRPPRLPRPRPRPSKSPRP	0.292
RRIRDRPPRLPRPRPRPKVQPRP	0.116

// query Consider the sequence RRIRIRPPRLPRPRPRPSVCPRP and give its measured shrunken log2 fold change.
// result -0.294

// query Which measured shrunken log2 fold change value corresponds to RRIRLRPPRLPRPRPRPLWLPRP ?
// result -0.0303

// query Consider the sequence shown here: RRIRMRPPRLPRPRPRPHISPRP What is its recorded shrunken log2 fold change?
// result -0.0571

// query Return reported shrunken log2 fold change; argument: RRIRIRPPRLPRPRPRPRMVPRP
// result 0.0922

// query Need shrunken log2 fold change of RRIRTRPPRLPRPRPRPFEYPRP , thanks.
// result -0.0571

----------
# Test system: Escherichia coli TOP10;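 further: peptides expressed intracellularly from a pBAD plasmid library in pooled LB shake-flask culture, induced with 0.3% L-arabinose, DNA abundance read by NGS, three biological replicates, DESeq2 with apeglm shrinkage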
# Test Method Notes: shrunken log2 fold change of peptide-encoding DNA abundance (4.5 h post-induction vs induction); higher = less antimicrobial activity (less host growth inhibition)
# Condition Set: time post-induction: 4.5 h; library: site-saturation at positions 5, 18, 19, 20
Readout Type: shrunken log2 fold change
No unit in the answer, only the number.

RRIRPRPPRLPRPRPRPFNMPRP	-0.949
RRIRHRPPRLPRPRPRPGEFPRP	-0.00759

Let's switch to this sequence now.
// query What value of shrunken log2 fold change has been recorded for this entry: RRIRKRPPRLPRPRPRPNKWPRP
// result -0.0156
